Measured percent cell growth at 10 µM of individual entries
# Tested on: OVCAR-5
# Assay type: cell-based
# condition-context: Homo sapiens, one dose 10^-5 M, 48 h

COc1ccc(C=NNC(=N)c2c(N)nc(S)nc2-c2ccc(Cl)cc2)cc1 [Compound 4j] : 102%
Nc1nc(S)nc(-c2ccc(Cl)cc2)c1-c1ncn[nH]1 [Compound 5b] : 96.7%
CN(C)c1ccc(-c2nc(S)nc(N)c2C(=N)NN=Cc2ccc(Cl)cc2Cl)cc1 [Compound 4f] : 107%

Incoming: # query: percent cell growth at 10 µM of entry Nc1nc(S)nc(-c2ccc(Cl)cc2Cl)c1-c1ncn[nH]1 [Compound 5c]
Outgoing: 107%

Incoming: Also need CN(C)c1ccc(-c2cc([N+](=O)[O-])ccc2C=NNC(=N)c2cnc(S)nc2N)cc1 [Compound 4c] , thanks.
Outgoing: 110%

* * *

# Test system: HT29
# Format: cell-based
# condition-context: Homo sapiens, HT-29, one dose 10^-5 M, 48 h
value-kind: % growth at 10 µM (%)
# number only, unit % dropped from output

For orientation, consider the following solved cases.
Nc1nc(S)nc(-c2ccc(Cl)cc2Cl)c1-c1ncn[nH]1 [Compound 5c] : 102
CN(C)c1ccc(-c2nc(S)nc(N)c2C#N)cc1 [Compound 1a] : 109
N=C(NN=Cc1ccc(Cl)cc1)c1c(N)nc(S)nc1-c1ccc(Cl)cc1Cl [Compound 4n] : 121
COc1ccc(C=NNC(=N)c2c(N)nc(S)nc2-c2ccc(Cl)cc2)cc1 [Compound 4j] : 105
N#Cc1c(N)nc(S)nc1-c1ccc(Cl)cc1 [Compound 1b] : 91.1
N=C(NN=Cc1ccc([N+](=O)[O-])cc1)c1c(N)nc(S)nc1-c1ccc(Cl)cc1 [Compound 4i] : 101

Incoming: # query: % growth at 10 µM of entry N=C(NN=Cc1ccc(Cl)cc1Cl)c1c(N)nc(S)nc1-c1ccc(Cl)cc1Cl [Compound 4r]
Outgoing: 118

Incoming: Also need CN(C)c1ccc(-c2nc(S)nc(N)c2-c2ncn[nH]2)cc1 [Compound 5a] , thanks.
Outgoing: 111

Incoming: Also need CN(C)c1ccc(-c2nc(S)nc(N)c2C(=N)NN=Cc2ccc(Cl)cc2)cc1 [Compound 4b] , thanks.
Outgoing: 92.7

Incoming: Also need CN(C)c1ccc(-c2nc(S)nc(N)c2C(=N)NN=Cc2ccc(Br)cc2)cc1 [Compound 4e] , thanks.
Outgoing: 104

Incoming: Also need COc1ccc(/C=N\NC(=N)c2c(N)nc(S)nc2-c2ccc(N(C)C)cc2)cc1 [Compound 4d] , thanks.
Outgoing: 100

* * *

# Tested on: SF-295
# Type: cell-based
# condition-context: Homo sapiens, one dose 10^-5 M, 48 h
value-kind: % cell growth at 10 µM (%)
# number only, unit % dropped from output

For orientation, consider the following solved cases.
CN(C)c1ccc(-c2nc(S)nc(N)c2C(=N)NN=Cc2ccc(Cl)cc2Cl)cc1 : 92.7
N=C(NN=Cc1ccc(Cl)cc1Cl)c1c(N)nc(S)nc1-c1ccc(Cl)cc1 : 85
N=C(NN=Cc1ccc([N+](=O)[O-])cc1)c1c(N)nc(S)nc1-c1ccc(Cl)cc1Cl : 52.4

Let us move to another entry and its % cell growth at 10 µM.
Incoming: # query: % cell growth at 10 µM of entry `N=C(NN=Cc1ccc(Br)cc1)c1c(N)nc(S)nc1-c1ccc(Cl)cc1`
Outgoing: 91.2

* * *

Measured activity at 10 µM of individual entries
# Tested on: NCI-H460
# Type: cell-based
# condition-context: Homo sapiens, one dose 10^-5 M, 48 h, read-out: % growth
# number only, unit % dropped from output

For orientation, consider the following solved cases.
N=C(NN=Cc1ccccc1)c1c(N)nc(S)nc1-c1ccc(Cl)cc1Cl [Compound 4m] : 108
N=C(NN=Cc1ccc(Cl)cc1)c1c(N)nc(S)nc1-c1ccc(Cl)cc1 [Compound 4h] : 93.7
CN(C)c1ccc(-c2cc([N+](=O)[O-])ccc2C=NNC(=N)c2cnc(S)nc2N)cc1 [Compound 4c] : 108
Nc1nc(S)nc(-c2ccc(Cl)cc2)c1-c1ncn[nH]1 [Compound 5b] : 110
CN(C)c1ccc(-c2nc(S)nc(N)c2C(=N)NN=Cc2ccccc2)cc1 [Compound 4a] : 104
COc1ccc(/C=N\NC(=N)c2c(N)nc(S)nc2-c2ccc(N(C)C)cc2)cc1 [Compound 4d] : 106
COc1ccc(C=NNC(=N)c2c(N)nc(S)nc2-c2ccc(Cl)cc2Cl)cc1 [Compound 4p] : 113
COc1ccc(C=NNC(=N)c2c(N)nc(S)nc2-c2ccc(Cl)cc2)cc1 [Compound 4j] : 119

Incoming: Can you look up activity at 10 µM on NCI-H460 for N=C(NN=Cc1ccc(Cl)cc1Cl)c1c(N)nc(S)nc1-c1ccc(Cl)cc1 [Compound 4l] ?
Outgoing: 66.3

Incoming: Also need CN(C)c1ccc(-c2nc(S)nc(N)c2C(=N)NN=Cc2ccc(Cl)cc2)cc1 [Compound 4b] , thanks.
Outgoing: 99.8

Incoming: Also need CN(C)c1ccc(-c2nc(S)nc(N)c2-c2ncn[nH]2)cc1 [Compound 5a] , thanks.
Outgoing: 111

Incoming: Also need N=C(NN=Cc1ccc(Br)cc1)c1c(N)nc(S)nc1-c1ccc(Cl)cc1 [Compound 4k] , thanks.
Outgoing: 73.4

Incoming: Also need N=C(NN=Cc1ccc([N+](=O)[O-])cc1)c1c(N)nc(S)nc1-c1ccc(Cl)cc1 [Compound 4i] , thanks.
Outgoing: 104

Incoming: Also need N=C(NN=Cc1ccc(Cl)cc1Cl)c1c(N)nc(S)nc1-c1ccc(Cl)cc1Cl [Compound 4r] , thanks.
Outgoing: 111

Incoming: Also need N=C(NN=Cc1ccc(Cl)cc1)c1c(N)nc(S)nc1-c1ccc(Cl)cc1Cl [Compound 4n] , thanks.
Outgoing: 102

Incoming: Also need N=C(NN=Cc1ccc(Br)cc1)c1c(N)nc(S)nc1-c1ccc(Cl)cc1Cl [Compound 4q] , thanks.
Outgoing: 110

Incoming: Also need N#Cc1c(N)nc(S)nc1-c1ccc(Cl)cc1 [Compound 1b] , thanks.
Outgoing: 86.7

Incoming: Also need CN(C)c1ccc(-c2nc(S)nc(N)c2C(=N)NN=Cc2ccc(Cl)cc2Cl)cc1 [Compound 4f] , thanks.
Outgoing: 116

Incoming: Also need N=C(NN=Cc1ccc([N+](=O)[O-])cc1)c1c(N)nc(S)nc1-c1ccc(Cl)cc1Cl [Compound 4o] , thanks.
Outgoing: 114

Incoming: Also need CN(C)c1ccc(-c2nc(S)nc(N)c2C#N)cc1 [Compound 1a] , thanks.
Outgoing: 113

Incoming: Also need CN(C)c1ccc(-c2nc(S)nc(N)c2C(=N)NN=Cc2ccc(Br)cc2)cc1 [Compound 4e] , thanks.
Outgoing: 107

Incoming: Also need N#Cc1c(N)nc(S)nc1-c1ccc(Cl)cc1Cl [Compound 1c] , thanks.
Outgoing: 82.6

Incoming: Also need Nc1nc(S)nc(-c2ccc(Cl)cc2Cl)c1-c1ncn[nH]1 [Compound 5c] , thanks.
Outgoing: 108

Incoming: Also need N=C(NN=Cc1ccccc1)c1c(N)nc(S)nc1-c1ccc(Cl)cc1 [Compound 4g] , thanks.
Outgoing: 16.5

* * *

# Tested on: RPMI-8226
# Assay type: cell-based
# condition-context: Homo sapiens, one dose 10^-5 M, 48 h
Measured % growth at 10 µM of individual entries
# number only, unit % dropped from output

For orientation, consider the following solved cases.
COc1ccc(C=NNC(=N)c2c(N)nc(S)nc2-c2ccc(Cl)cc2)cc1 : 91.2
N=C(NN=Cc1ccc(Br)cc1)c1c(N)nc(S)nc1-c1ccc(Cl)cc1Cl : 98.8

Incoming: # query: % growth at 10 µM of entry `N=C(NN=Cc1ccc(Cl)cc1Cl)c1c(N)nc(S)nc1-c1ccc(Cl)cc1Cl`
Outgoing: 106

Incoming: Also need `CN(C)c1ccc(-c2nc(S)nc(N)c2C(=N)NN=Cc2ccc(Br)cc2)cc1` , thanks.
Outgoing: 84.4

Incoming: Also need `CN(C)c1ccc(-c2nc(S)nc(N)c2-c2ncn[nH]2)cc1` , thanks.
Outgoing: 109

Incoming: Also need `N=C(NN=Cc1ccc(Br)cc1)c1c(N)nc(S)nc1-c1ccc(Cl)cc1` , thanks.
Outgoing: 56.8

Incoming: Also need `COc1ccc(C=NNC(=N)c2c(N)nc(S)nc2-c2ccc(Cl)cc2Cl)cc1` , thanks.
Outgoing: 99.4

Incoming: Also need `N=C(NN=Cc1ccc(Cl)cc1)c1c(N)nc(S)nc1-c1ccc(Cl)cc1` , thanks.
Outgoing: 83.8

Incoming: Also need `Nc1nc(S)nc(-c2ccc(Cl)cc2)c1-c1ncn[nH]1` , thanks.
Outgoing: 98.6

Incoming: Also need `COc1ccc(/C=N\NC(=N)c2c(N)nc(S)nc2-c2ccc(N(C)C)cc2)cc1` , thanks.
Outgoing: 86.5

Incoming: Also need `Nc1nc(S)nc(-c2ccc(Cl)cc2Cl)c1-c1ncn[nH]1` , thanks.
Outgoing: 103

Incoming: Also need `N=C(NN=Cc1ccccc1)c1c(N)nc(S)nc1-c1ccc(Cl)cc1` , thanks.
Outgoing: 51.4

Incoming: Also need `N=C(NN=Cc1ccccc1)c1c(N)nc(S)nc1-c1ccc(Cl)cc1Cl` , thanks.
Outgoing: 104

Incoming: Also need `CN(C)c1ccc(-c2nc(S)nc(N)c2C(=N)NN=Cc2ccccc2)cc1` , thanks.
Outgoing: 89.8

Incoming: Also need `N=C(NN=Cc1ccc(Cl)cc1)c1c(N)nc(S)nc1-c1ccc(Cl)cc1Cl` , thanks.
Outgoing: 102

Incoming: Also need `N#Cc1c(N)nc(S)nc1-c1ccc(Cl)cc1Cl` , thanks.
Outgoing: 9.51

Where do the numbers come from? From paper PMC10866072.
